Tested on: HT29 cells
Experiment: cells
Assay type: cell-based, human
Settings: Homo sapiens, HT-29; colon cancer; MTT, 48 h, 37 °C; DMEM + 10% FBS; 2,500 cells/well; absorbance 570 nm; n = 3 biologically independent
Experimental: An MTT (2-(4,5-dimethylthiazol-2-yl)−2,5-diphenyltetrazolium bromide) assay was used to determine the cytotoxicity of lapcin towards diverse cancer cell lines. Lapcin was dissolved in DMSO to make a 3.2 mg/mL working solution. For each cancer line detailed in Supplementary Table 5, cells at 80-90% confluency were counted and seeded in 96-well, flat bottom microplates and incubated at 37 °C with a 5% CO2 atmosphere. Outer wells were unused to avoid edge effects. […]
Outcome Measure: pIC50
One number for each entry, as −log10 of the molar value.

INSERT INTO assay_data (molecule, target_system, measurement) VALUES
  ('CC[C@@]1(O)C(=O)OCc2c1cc1n(c2=O)Cc2cc3ccccc3nc2-1 [Camptothecin]', 'HT29 cells', 7.65);

## Input # get_value(readout='pIC50', item= COc1cc([C@@H]2c3cc4c(cc3[C@@H](O[C@@H]3O[C@@H]5CO[C@@H](C)O[C@H]5[C@H](O)[C@H]3O)[C@H]3COC(=O)[C@H]23)OCO4)cc(OC)c1O [Etoposide] )
## Output 5.02

###

test system: HCT116 cells; test: cells; format: cell-based, human; conditions: Homo sapiens, HCT-116; colon cancer; MTT, 48 h, 37 °C; DMEM + 10% FBS; 10,000 cells/well; absorbance 570 nm; n = 3 biologically independent
Outcome Measure: IC50 (µM)
Give bare numbers, in µM.

## Input What IC50 appears in the records for this molecule with HCT116 cells? CC[C@@]1(O)C(=O)OCc2c1cc1n(c2=O)Cc2cc3ccccc3nc2-1
## Output 0.129

###

system: A549 cells; test: cells; assay type: cell-based, human; conditions: Homo sapiens, A549; lung cancer; MTT, 48 h, 37 °C; DMEM + 10% FBS + NEAA; 2,500 cells/well; absorbance 570 nm; n = 3 biologically independent
Answer each item with its documented IC50.
One number for each entry, in nM.

INSERT INTO measurements (compound, measurement) VALUES
  ('COc1cc([C@@H]2c3cc4c(cc3[C@@H](O[C@@H]3O[C@@H]5CO[C@@H](C)O[C@H]5[C@H](O)[C@H]3O)[C@H]3COC(=O)[C@H]23)OCO4)cc(OC)c1O [Etoposide]', 79.9);

## Input # get_value(readout='IC50', item= CC[C@@]1(O)C(=O)OCc2c1cc1n(c2=O)Cc2cc3ccccc3nc2-1 )
## Output 17.6
